# TARGET UNDER TEST: Id1/E47 interaction (Homo sapiens, UniProt P15923+P41134)
# Construct: expressed in transfected cells; host or cells: Saccharomyces cerevisiae strain PRT480
# Sequence (P41134 1-155): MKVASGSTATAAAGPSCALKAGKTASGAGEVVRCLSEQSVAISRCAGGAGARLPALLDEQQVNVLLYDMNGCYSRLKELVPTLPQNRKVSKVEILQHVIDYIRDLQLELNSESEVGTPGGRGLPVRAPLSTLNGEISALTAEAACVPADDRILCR
# Sequence (P15923 1-651 isoform P15923-2): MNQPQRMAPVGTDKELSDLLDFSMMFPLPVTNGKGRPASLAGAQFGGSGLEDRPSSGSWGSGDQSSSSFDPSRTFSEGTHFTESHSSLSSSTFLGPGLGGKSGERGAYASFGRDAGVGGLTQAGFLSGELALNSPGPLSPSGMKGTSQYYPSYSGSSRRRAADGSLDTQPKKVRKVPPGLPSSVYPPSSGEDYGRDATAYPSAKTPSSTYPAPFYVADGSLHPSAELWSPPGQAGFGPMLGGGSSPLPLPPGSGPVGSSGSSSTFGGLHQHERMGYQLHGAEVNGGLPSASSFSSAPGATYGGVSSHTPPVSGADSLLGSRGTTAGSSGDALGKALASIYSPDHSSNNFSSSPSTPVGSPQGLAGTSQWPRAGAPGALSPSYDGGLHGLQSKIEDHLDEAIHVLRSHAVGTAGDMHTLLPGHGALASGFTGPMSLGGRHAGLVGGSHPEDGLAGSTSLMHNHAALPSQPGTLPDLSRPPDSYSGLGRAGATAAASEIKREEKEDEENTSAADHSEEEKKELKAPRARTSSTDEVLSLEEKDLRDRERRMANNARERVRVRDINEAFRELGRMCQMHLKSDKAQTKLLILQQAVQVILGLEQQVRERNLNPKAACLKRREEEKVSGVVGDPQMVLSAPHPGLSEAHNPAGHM
# ASSAY DETAILS: specificity of blocking: two-hybrid in strain PRT480 expressing ID and E47; further: key: +: the interaction was blocked; −: the interaction was not blocked
# Type: cell-based
# APPLIED CONDITIONS: yeast strain PRT480, specificity control
MEASURED PARAMETER: Target interaction Id1/E47 blocked

Target interaction Id1/E47 blocked reported for this substance BGF 05: non-specific blocker clone; fusion peptide SEQ ID NO: 63, fragment-encoded SEQ ID NO: 65; H. influenzae fragment (MGKPIPNPLLGLDSTQAMGAPPKKKRKVAEFARTTTTRLINQSVVRKIWLYRDAR) : +

Target interaction Id1/E47 blocked reported for this substance BGF 24: SCL/E47 peptide blocker; fusion peptide SEQ ID NO: 75, fragment-encoded SEQ ID NO: 77; T. maritima fragment (MGKPIPNPLLGLDSTQAMGAPPKKKRKVAEFRSDYKDDDDKLIKHHWVLSIITTASR) : −

Target interaction Id1/E47 blocked reported for this substance BGF 06: SCL/E47 peptide blocker; fusion peptide SEQ ID NO: 67, fragment-encoded SEQ ID NO: 69; A. aeolicus fragment (MGKPIPNPLLGLDSTQAMGAPPKKKRKVAEFRSDYKDDDDKAYHIIAVCFLIKVS) : −

Target interaction Id1/E47 blocked reported for this substance BGF 13: SCL/E47 peptide blocker; fusion peptide SEQ ID NO: 71, fragment-encoded SEQ ID NO: 73; H. influenzae fragment (MGKPIPNPLLGLDSTQAMGAPPKKKRKVAEFGFCSNQMREM) : −
